Values from ChEMBL document CHEMBL2331402

Target: Carbonic anhydrase 2 (Homo sapiens, UniProt P00918)
Experiment: Inhibition of human recombinant carbonic anhydrase 2 preincubated for 15 mins by CO2 hydration stopped-flow assay
quantity.measured: Ki (µM)

Worked examples follow.
>  <chemical.structure>
O/N=C/c1c(O)ccc(-c2ccc(O)c(F)c2)c1Cl

>  <quantity.measured>
Ki

>  <val>
3.74

$$$$
>  <chemical.structure>
Oc1cc(F)cc(F)c1

>  <quantity.measured>
Ki

>  <val>
340

$$$$
>  <chemical.structure>
C/C(=N\O)c1ccc(-c2ccc(O)cc2)c(Cl)c1O

>  <quantity.measured>
Ki

>  <val>
3.32

$$$$
>  <chemical.structure>
N#Cc1c(-c2ccc(O)cc2)ccc(/C=N/O)c1O

>  <quantity.measured>
Ki

>  <val>
5.87

$$$$
>  <chemical.structure>
COc1ccc(-c2ccc(O)c(/C=N/O)c2)cc1F

>  <quantity.measured>
Ki

>  <val>
3.66

$$$$

(1) O/N=C/c1cc(-c2ccc(O)c(F)c2)ccc1O
(2) O/N=C/c1c(O)ccc(-c2ccc(O)cc2)c1Cl
(3) Cc1c(-c2ccc(O)cc2)ccc(/C=N/O)c1O
List these items ordered by Ki, big to small. Answer by listing the labels in the order asked for.
3, 1, 2
(3: 6.35 µM, 1: 4.13 µM, 2: 2.3 µM)

* * *

Target: Carbonic anhydrase 12 (Homo sapiens, UniProt O43570)
Sequence (O43570 whole entry): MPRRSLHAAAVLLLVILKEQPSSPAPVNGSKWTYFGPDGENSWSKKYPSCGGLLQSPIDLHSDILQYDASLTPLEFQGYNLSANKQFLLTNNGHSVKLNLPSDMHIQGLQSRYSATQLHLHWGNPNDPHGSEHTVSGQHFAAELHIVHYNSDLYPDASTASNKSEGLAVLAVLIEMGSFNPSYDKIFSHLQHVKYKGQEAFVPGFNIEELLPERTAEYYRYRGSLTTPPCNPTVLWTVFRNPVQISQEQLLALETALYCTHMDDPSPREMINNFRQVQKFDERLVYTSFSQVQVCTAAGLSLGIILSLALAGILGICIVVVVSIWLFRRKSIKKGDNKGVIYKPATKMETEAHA
Assay: Inhibition of human recombinant carbonic anhydrase 12 preincubated for 15 mins by CO2 hydration stopped-flow assay
pKi: −log10 of the molar value.
quantity.measured: pKi

Worked examples follow.
>  <chemical.structure>
O/N=C/c1c(O)ccc(-c2ccc(O)c(F)c2)c1Cl

>  <val>
5.26

$$$$
>  <chemical.structure>
O/N=C/c1cc(-c2ccc(O)c(F)c2)ccc1O

>  <val>
5.37

$$$$
>  <chemical.structure>
C/C(=N\O)c1ccc(-c2ccc(O)c(F)c2)c(Cl)c1O

>  <val>
5.32

$$$$
>  <chemical.structure>
O/N=C/c1c(O)ccc(-c2ccc(O)cc2)c1Cl

>  <val>
5.37

$$$$
>  <chemical.structure>
N#Cc1c(-c2ccc(O)cc2)ccc(/C=N/O)c1O

>  <val>
5.50

$$$$

(I) C/C(=N\O)c1ccc(-c2ccc(O)cc2)c(Cl)c1O
(II) Cc1c(-c2ccc(O)cc2)ccc(/C=N/O)c1O
From the items above, decide which of I and II has the lower pKi reading. State your choice using its label.
II

* * *

Biological target: Carbonic anhydrase 1 (Homo sapiens)
Assay: Inhibition of human recombinant carbonic anhydrase 1 preincubated for 15 mins by CO2 hydration stopped-flow assay
pKi: −log10 of the molar value.
quantity.measured: pKi

Worked examples follow.
>  <chemical.structure>
C/C(=N\O)c1ccc(-c2ccc(O)cc2)c(Cl)c1O

>  <system.name>
Carbonic anhydrase 1 (Homo sapiens)

>  <pKi>
5.16

$$$$
>  <chemical.structure>
COc1ccc(-c2ccc(O)c(/C=N/O)c2)cc1F

>  <system.name>
Carbonic anhydrase 1 (Homo sapiens)

>  <pKi>
5.16

$$$$

(P) C/C(=N\O)c1ccc(-c2ccc(O)c(F)c2)c(Cl)c1O
(Q) O/N=C/c1c(O)ccc(-c2ccc(O)cc2)c1Cl
Compare the recorded pKi of P and Q ; state which is larger. State your choice using its label.
Q
(Q: 5.40, P: 5.12)

* * *

Target: Carbonic anhydrase 9 (Homo sapiens, UniProt Q16790)
Test: Inhibition of human recombinant carbonic anhydrase 9 preincubated for 15 mins by CO2 hydration stopped-flow assay
pKi: −log10 of the molar value.
quantity.measured: pKi

>  <chemical.structure>
O/N=C/c1c(O)ccc(-c2ccc(O)c(F)c2)c1Cl

>  <quantity.measured>
pKi

>  <val>
5.15

$$$$
>  <chemical.structure>
O/N=C/c1cc(-c2ccc(O)c(F)c2)ccc1O

>  <quantity.measured>
pKi

>  <val>
5.16

$$$$
>  <chemical.structure>
N#Cc1c(-c2ccc(O)cc2)ccc(/C=N/O)c1O

>  <quantity.measured>
pKi

>  <val>
5.11

$$$$
>  <chemical.structure>
C/C(=N\O)c1ccc(-c2ccc(O)c(F)c2)c(Cl)c1O

>  <quantity.measured>
pKi

>  <val>
5.15

$$$$
>  <chemical.structure>
COc1ccc(-c2ccc(O)c(/C=N/O)c2)cc1F

>  <quantity.measured>
pKi

>  <val>
4.99

$$$$

(P) Oc1cc(F)cc(F)c1
(Q) Cc1c(-c2ccc(O)cc2)ccc(/C=N/O)c1O
(R) C/C(=N\O)c1ccc(-c2ccc(O)cc2)c(Cl)c1O
List these items ordered by pKi, big to small. Answer by listing the labels in the order asked for.
P, Q, R
(P: 6.03, Q: 5.19, R: 4.99)

* * *

Target: Carbonic anhydrase 1 (Homo sapiens, UniProt P00915)
Sequence (P00915 whole entry): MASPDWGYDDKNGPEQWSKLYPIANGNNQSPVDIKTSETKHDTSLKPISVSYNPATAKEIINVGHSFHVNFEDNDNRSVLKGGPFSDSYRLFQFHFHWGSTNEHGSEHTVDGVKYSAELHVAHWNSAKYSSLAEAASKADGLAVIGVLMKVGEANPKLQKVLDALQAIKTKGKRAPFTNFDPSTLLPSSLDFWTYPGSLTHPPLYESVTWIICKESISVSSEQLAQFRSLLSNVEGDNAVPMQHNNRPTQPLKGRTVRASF
Test: Inhibition of human recombinant carbonic anhydrase 1 preincubated for 15 mins by CO2 hydration stopped-flow assay
quantity.measured: Ki (µM)

>  <chemical.structure>
Cc1c(-c2ccc(O)cc2)ccc(/C=N/O)c1O

>  <Ki, µM>
7.88

$$$$
>  <chemical.structure>
O/N=C/c1c(O)ccc(-c2ccc(O)c(F)c2)c1Cl

>  <Ki, µM>
7.27

$$$$
>  <chemical.structure>
N#Cc1c(-c2ccc(O)cc2)ccc(/C=N/O)c1O

>  <Ki, µM>
7.65

$$$$
>  <chemical.structure>
O/N=C/c1cc(-c2ccc(O)c(F)c2)ccc1O

>  <Ki, µM>
9.13

$$$$
